Target: GST-Nv-NF-kB (Cys allele) (Nematostella vectensis, UniProt E5G601 2-411)
Sequence: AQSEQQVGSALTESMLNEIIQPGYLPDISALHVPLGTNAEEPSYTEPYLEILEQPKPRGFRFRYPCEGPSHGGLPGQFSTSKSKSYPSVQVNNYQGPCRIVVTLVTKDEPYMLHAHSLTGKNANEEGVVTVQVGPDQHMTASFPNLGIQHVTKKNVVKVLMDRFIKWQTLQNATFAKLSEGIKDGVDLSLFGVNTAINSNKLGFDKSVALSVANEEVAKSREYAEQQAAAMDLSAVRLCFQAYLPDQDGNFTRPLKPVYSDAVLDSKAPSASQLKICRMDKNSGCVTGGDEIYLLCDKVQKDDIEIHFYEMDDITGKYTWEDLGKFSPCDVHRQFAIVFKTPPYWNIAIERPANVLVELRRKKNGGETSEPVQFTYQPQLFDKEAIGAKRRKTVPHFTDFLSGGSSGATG
Assay: protein-binding microarray (PBM); PBM: ~300 nM protein, 6 mM HEPES pH 7.8, 80 mM KCl, 0.5 mM EDTA, 0.5 mM EGTA, 6% glycerol, 35 ng/ul poly-dIdC, 1% milk, 1 h, room temperature; high values mean tight binding
Details: dsDNA, one strand shown
Think of 5 z-score as a floor: if binding signal stands on it or above, it is 1; beneath it, -1.

Exercise: Threshold query (binding signal >= 5 z-score) on CCGATTAACATCAGGGGGGACTATGATGTTAATCGGGTCTTGATTCGCTTGACGCTGCTG
Solution: 1

Exercise: Decide: is the reported value of binding signal for CCGATTAACATCAAGGGAGTTCCTGATGTTAATCGGGTCTTGATTCGCTTGACGCTGCTG equal to or greater than 5 z-score?
Solution: -1

Exercise: State whether the measured binding signal reaches 5 z-score, counting equality as reaching it, for CCGATTAACATCAGGGAATTCACTGATGTTAATCGGGTCTTGATTCGCTTGACGCTGCTG
Solution: 1

Exercise: Could you tell me if the measured binding signal of CCGATTAACATCATATTTTCCCATGATGTTAATCGGGTCTTGATTCGCTTGACGCTGCTG reaches 5 z-score or more?
Solution: -1

Exercise: Entry CCGATTAACATCAAATTTCCCGTTGATGTTAATCGGGTCTTGATTCGCTTGACGCTGCTG : is its binding signal no less than 5 z-score?
Solution: 1

Exercise: Please indicate if the recorded binding signal for CCGATTAACATCAGGGAAGGACCTGATGTTAATCGGGTCTTGATTCGCTTGACGCTGCTG meets or exceeds 5 z-score.
Solution: -1

Exercise: Confirm if binding signal reported for the sequence CCGATTAACATCAGGAGATTCCCTGATGTTAATCGGGTCTTGATTCGCTTGACGCTGCTG is 5 z-score or above.
Solution: 1

Exercise: Confirm if binding signal reported for the sequence CCGATTAACATCAGGGAAATCACTGATGTTAATCGGGTCTTGATTCGCTTGACGCTGCTG is 5 z-score or above.
Solution: -1

Exercise: Please indicate if the recorded binding signal for CCGATTAACATCACCATGGGAAATGATGTTAATCGGGTCTTGATTCGCTTGACGCTGCTG meets or exceeds 5 z-score.
Solution: -1

---

Molecular target: GST-Ap-NF-kB RHD (Exaiptasia pallida (Aiptasia), UniProt A0A913YAJ5 2-422)
Sequence: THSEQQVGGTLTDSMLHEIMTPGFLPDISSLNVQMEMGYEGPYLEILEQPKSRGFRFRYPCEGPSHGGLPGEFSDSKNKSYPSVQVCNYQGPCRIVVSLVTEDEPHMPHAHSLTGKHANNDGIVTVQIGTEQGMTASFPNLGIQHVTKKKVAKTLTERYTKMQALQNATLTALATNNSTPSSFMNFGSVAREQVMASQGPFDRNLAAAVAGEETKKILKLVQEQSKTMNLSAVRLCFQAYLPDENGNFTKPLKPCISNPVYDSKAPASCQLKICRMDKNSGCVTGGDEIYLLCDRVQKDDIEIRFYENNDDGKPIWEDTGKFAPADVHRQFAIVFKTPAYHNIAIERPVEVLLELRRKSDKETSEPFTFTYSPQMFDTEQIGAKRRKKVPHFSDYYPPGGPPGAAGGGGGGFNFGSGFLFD
Assay: protein-binding microarray (PBM); PBM: ~300 nM protein, 6 mM HEPES pH 7.8, 80 mM KCl, 0.5 mM EDTA, 0.5 mM EGTA, 6% glycerol, 35 ng/ul poly-dIdC, 1% milk, 1 h, room temperature; Ap Aiptasia and Nv Nematostella (sea anemones) / Co Capsaspora / Aq Amphimedon (sponge) / Dm Drosophila / Hu human; RHD is the Rel homology domain; high values mean tight binding
Conditions: dsDNA, one strand shown
Exercise: for every item that follows, state its recorded binding signal.
Value expressed in z-score; do not type the unit.

Per the records, this sequence ( CCGATTAACATCAGGAATTACCATGATGTTAATCGGGTCTTGATTCGCTTGACGCTGCTG ) has binding signal equal to 1.03

According to the records, this sequence CCGATTAACATCATGGGGGGGAATGATGTTAATCGGGTCTTGATTCGCTTGACGCTGCTG displays binding signal of 6.87

Sure, the documented binding signal for CCGATTAACATCAGGAAATCACCTGATGTTAATCGGGTCTTGATTCGCTTGACGCTGCTG is 2.81

The sequence CCGATTAACATCATCCCGGGAAATGATGTTAATCGGGTCTTGATTCGCTTGACGCTGCTG showed binding signal equal to 1.98

The sequence identified as CCGATTAACATCACGTATTCCCCTGATGTTAATCGGGTCTTGATTCGCTTGACGCTGCTG registered its binding signal at 7.14

binding signal in this record for CCGATTAACATCATAAATCCCCATGATGTTAATCGGGTCTTGATTCGCTTGACGCTGCTG : 6.78

Looking up CCGATTAACATCAAGCATTTCCCTGATGTTAATCGGGTCTTGATTCGCTTGACGCTGCTG , I found its binding signal recorded as 2.4

# binding signal of CCGATTAACATCAGGGGGGTAACTGATGTTAATCGGGTCTTGATTCGCTTGACGCTGCTG = 5.83

Recorded binding signal (sequence CCGATTAACATCAATTCACCCCCTGATGTTAATCGGGTCTTGATTCGCTTGACGCTGCTG ): 4.01

For this sequence ( CCGATTAACATCACGGACTCCCCTGATGTTAATCGGGTCTTGATTCGCTTGACGCTGCTG ), measured binding signal is 5.18

The reported binding signal of the sequence CCGATTAACATCACGAATTTCCCTGATGTTAATCGGGTCTTGATTCGCTTGACGCTGCTG was 4.28

CCGATTAACATCAGACATTCCCATGATGTTAATCGGGTCTTGATTCGCTTGACGCTGCTG has a reported binding signal of 1.46

Record summary for CCGATTAACATCACTAATTTCCCTGATGTTAATCGGGTCTTGATTCGCTTGACGCTGCTG : reported binding signal = 3.79

For CCGATTAACATCAGGCCTTCCCCTGATGTTAATCGGGTCTTGATTCGCTTGACGCTGCTG the sequence record lists binding signal as 6.39

sequence CCGATTAACATCAGGGGAATCAATGATGTTAATCGGGTCTTGATTCGCTTGACGCTGCTG , binding signal observed: 5.46

Field binding signal (entry CCGATTAACATCACCCGGGTAAATGATGTTAATCGGGTCTTGATTCGCTTGACGCTGCTG ) reads 1.42

Measured binding signal, CCGATTAACATCAAAATTGCCCCTGATGTTAATCGGGTCTTGATTCGCTTGACGCTGCTG : 3.3

// sample CCGATTAACATCAGGGAAAGCCCTGATGTTAATCGGGTCTTGATTCGCTTGACGCTGCTG , its binding signal was 6.37

Form field binding signal, entry CCGATTAACATCAGGGGGATAACTGATGTTAATCGGGTCTTGATTCGCTTGACGCTGCTG : 6.6

Record summary for CCGATTAACATCAGGGACATACCTGATGTTAATCGGGTCTTGATTCGCTTGACGCTGCTG : reported binding signal = 2.52

# sequence CCGATTAACATCAGGGAACGCCCTGATGTTAATCGGGTCTTGATTCGCTTGACGCTGCTG ; its binding signal = 2.68

Query CCGATTAACATCAGGGAATTGCATGATGTTAATCGGGTCTTGATTCGCTTGACGCTGCTG yields binding signal of 2.48

The sequence listed as CCGATTAACATCAAAAAGTCCCTTGATGTTAATCGGGTCTTGATTCGCTTGACGCTGCTG has a reported binding signal of 7.48

sequence CCGATTAACATCAATGTCCCCCCTGATGTTAATCGGGTCTTGATTCGCTTGACGCTGCTG , binding signal observed: 5.26

GET /value?item= CCGATTAACATCAGGGAATTACATGATGTTAATCGGGTCTTGATTCGCTTGACGCTGCTG &field=binding signal returns 4.01

Given item CCGATTAACATCAGGGGCACCCCTGATGTTAATCGGGTCTTGATTCGCTTGACGCTGCTG , the value recorded as its binding signal is 5.17

# sequence CCGATTAACATCAGAAAAAACCCTGATGTTAATCGGGTCTTGATTCGCTTGACGCTGCTG ; its binding signal = 3.95

binding signal in this record for CCGATTAACATCAAAACCTCCCCTGATGTTAATCGGGTCTTGATTCGCTTGACGCTGCTG : 5.96

Entry CCGATTAACATCAAAGTATCCCCTGATGTTAATCGGGTCTTGATTCGCTTGACGCTGCTG ; binding signal = 6.1

The recorded binding signal for CCGATTAACATCAAGGGGGGTGCTGATGTTAATCGGGTCTTGATTCGCTTGACGCTGCTG is 4.44

The sequence listed as CCGATTAACATCACGGGGAAATCTGATGTTAATCGGGTCTTGATTCGCTTGACGCTGCTG shows binding signal equal to 7.76

Documented binding signal of CCGATTAACATCAGGACAACCCCTGATGTTAATCGGGTCTTGATTCGCTTGACGCTGCTG : 3.21

binding signal in this record for CCGATTAACATCAGTCCCTAAGCTGATGTTAATCGGGTCTTGATTCGCTTGACGCTGCTG : 1.75

binding signal measured on CCGATTAACATCAAAAGATCCCCTGATGTTAATCGGGTCTTGATTCGCTTGACGCTGCTG = 8.32

So, CCGATTAACATCAAACATTCCCATGATGTTAATCGGGTCTTGATTCGCTTGACGCTGCTG ? Its binding signal was 1.96

sequence CCGATTAACATCAGAAAGTCCCCTGATGTTAATCGGGTCTTGATTCGCTTGACGCTGCTG , binding signal observed: 8.98
